test system: HeLa Kyoto; test: solubility change mitosis vs G1/S (difference of NP-40 vs SDS log2 ratios) (log2 ratio difference); higher = more soluble in mitosis;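 note: synchronized HeLa Kyoto cells (double thymidine block for G1/S, nocodazole release for mitosis), protein amounts in NP-40 versus SDS lysates quantified by mass spectrometry, three biological replicates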
Attribute: solubility change mitosis (log2)
Give your answer as a number; write no unit.

seq-string: MAAVQMDPELAKRLFFEGATVVILNMPKGTEFGIDYNSWEVGPKFRGVKMIPPGIHFLHYSSVDKANPKEVGPRMGFFLSLHQRGLTVLRWSTLREEVDLSPAPESEVEAMRANLQELDQFLGPYPYATLKKWISLTNFISEATVEKLQPENRQICAFSDVLPVLSMKHTKDRVGQNLPRCGIECKSYQEGLARLPEMKPRAGTEIRFSELPTQMFPEGATPAEITKHSMDLSYALETVLNKQFPSSPQDVLGELQFAFVCFLLGNVYEAFEHWKRLLNLLCRSEAAMMKHHTLYINLISILYHQLGEIPADFFVDIVSQDNFLTSTLQVFFSSACSIAVDATLRKKAEKFQAHLTKKFRWDFAAEPEDCAPVVVELPEGIEMG [AAR2]
val: -0.266
//
seq-string: MAAAVAAAPGALGSLHAGGARLVAACSAWLCPGLRLPGSLAGRRAGPAIWAQGWVPAAGGPAPKRGYSSEMKTEDELRVRHLEEENRGIVVLGINRAYGKNSLSKNLIKMLSKAVDALKSDKKVRTIIIRSEVPGIFCAGADLKERAKMSSSEVGPFVSKIRAVINDIANLPVPTIAAIDGLALGGGLELALACDIRVAASSAKMGLVETKLAIIPGGGGTQRLPRAIGMSLAKELIFSARVLDGKEAKAVGLISHVLEQNQEGDAAYRKALDLAREFLPQGPVAMRVAKLAINQGMEVDLVTGLAIEEACYAQTIPTKDRLEGLLAFKEKRPPRYKGE [AUH]
val: -0.0164

Consider the record given below.
IN: Fill in the blank: the reported solubility change mitosis (log2) of MVSWMICRLVVLVFGMLCPAYASYKAVKTKNIREYVRWMMYWIVFALFMAAEIVTDIFISWFPFYYEIKMAFVLWLLSPYTKGASLLYRKFVHPSLSRHEKEIDAYIVQAKERSYETVLSFGKRGLNIAASAAVQAATKSQGALAGRLRSFSMQDLRSISDAPAPAYHDPLYLEDQVSHRRPPIGYRAGGLQDSDTEDECWSDTEAVPRAPARPREKPLIRSQSLRVVKRKPPVREGTSRSLKVRTRKKTVPSDVDS [REEP4] is ____.
OUT: -0.135

The values you see were collected from the supplement of paper PMC5998384.
